targetOrTestSystem: MCT4 (Homo sapiens, UniProt O15427)
Construct: Cell line MDA-MB-231 (MCT4 expressing human triple negative breast cancer cell line); endogenous in cells
Sequence (O15427 2-465 limits assumed): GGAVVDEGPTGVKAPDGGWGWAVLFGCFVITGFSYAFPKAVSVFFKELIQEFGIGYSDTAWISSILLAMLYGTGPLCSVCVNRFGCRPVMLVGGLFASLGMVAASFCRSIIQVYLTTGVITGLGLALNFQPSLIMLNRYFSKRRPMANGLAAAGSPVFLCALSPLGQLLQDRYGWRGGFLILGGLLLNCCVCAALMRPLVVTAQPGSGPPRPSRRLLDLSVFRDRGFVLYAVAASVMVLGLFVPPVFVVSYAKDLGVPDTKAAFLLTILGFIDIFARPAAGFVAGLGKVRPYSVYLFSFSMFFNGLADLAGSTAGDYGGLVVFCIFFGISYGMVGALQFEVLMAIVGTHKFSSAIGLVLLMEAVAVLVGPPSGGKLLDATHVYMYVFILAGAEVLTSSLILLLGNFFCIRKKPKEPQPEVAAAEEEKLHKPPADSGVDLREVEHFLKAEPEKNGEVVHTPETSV
Sequence (P35613 140-385 partner limits assumed): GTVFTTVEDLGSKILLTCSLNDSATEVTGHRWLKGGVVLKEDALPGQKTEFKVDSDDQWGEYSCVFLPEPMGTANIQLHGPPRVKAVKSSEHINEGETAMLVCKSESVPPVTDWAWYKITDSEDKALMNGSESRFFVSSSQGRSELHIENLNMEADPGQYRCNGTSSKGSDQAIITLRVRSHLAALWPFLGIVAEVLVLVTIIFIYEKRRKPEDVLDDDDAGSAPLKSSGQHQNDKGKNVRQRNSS
experimentSummary: MCT lactate inhibition assay, MCT4 in MDA-MB-231
runConditions: MDA-MB-231 cells
Excerpt: Cell line MDA-MB-231 (MCT4 expressing human triple negative breast cancer cell line), cell line MCF-7 (MCT1 expressing estrogen receptor positive human breast cancer cell line), and cell line 4T1 (MCT1 expressing metastatic murine breast cancer cell line) were used for testing the in vitro cytotoxicity of compounds 1-d, 2, and 3 using the MTT assay available from ThermoFisher Scientific. […]
pIC50: −log10 of the molar value.
pIC50 values for the compounds below.

| chemicalSmiles | pIC50 |
| --- | --- |
| CN(C)c1ccc(-n2cc(/C=C(\C#N)C(=O)O)c3ccccc32)cc1 | 7.70 |
| N#C/C(=C\c1cn(-c2ccc(NC(=O)Nc3ccc(Cl)c(C(F)(F)F)c3)cc2)c2ccccc12)C(=O)O | 6.24 |
| N#C/C(=C\c1cn(-c2ccc(NC(=O)c3ccc(NC(=O)Nc4ccc(Cl)c(C(F)(F)F)c4)cc3)cc2)c2ccccc12)C(=O)O | 6.85 |

###

Reported IC50 by item:
System: 4T1 (MCT1 expressing metastatic murine breast cancer cell line)
experimentSummary: MTT in vitro cytotoxicity assay, 4T1
Format: cell-based
runConditions: Mus musculus, 4T1 cells
outcomeMeasure: IC50 (µM)

| chemicalSmiles | unitsLabel | resultQualifier | measuredNumber |
| --- | --- | --- | --- |
| N#C/C(=C\c1cn(-c2ccc(NC(=O)Nc3ccc(Cl)c(C(F)(F)F)c3)cc2)c2ccccc12)C(=O)O | µM | = | 76.5 |
| N#C/C(=C\c1cn(-c2ccc(NC(=O)c3ccc(NC(=O)Nc4ccc(Cl)c(C(F)(F)F)c4)cc3)cc2)c2ccccc12)C(=O)O | µM | > | 250 |
| CN(C)c1ccc(-n2cc(/C=C(\C#N)C(=O)O)c3ccccc32)cc1 | µM | = | 65.4 |
